Hey, just so you know, these numbers are from the supplement of paper PMC10126150.

The following sequences are shown together with reported switch fluorescence ratio values.
system: ATP; experiment: switch fluorescence ratio, 500 uM ATP over buffer (Cy3 cluster intensity, sum of 5 cycles each) (fold (ratio)); higher = stronger signal-on switching upon ATP binding; sequences stand for … in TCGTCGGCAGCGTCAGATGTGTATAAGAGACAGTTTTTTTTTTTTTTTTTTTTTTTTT…TC; details: aptamer strand: ATP DNA aptamer (quencher-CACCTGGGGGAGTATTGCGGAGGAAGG + anchor), 100 nM annealed; ATP concentration: 500 uM;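 note: ATP exposure 15 min at 22 °C before imaging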
Could you keep your reply to the number by itself?

Illustrative cases are given below, each with its answer.
INSERT INTO measurements (sequence_code, endpoint_value) VALUES
  ('CTGTATATGG', 0.985),
  ('TAACAGAAGA', 0.991),
  ('ACGGATTGAA', 1),
  ('TTTGGGGTTC', 1.02),
  ('TTAATGTATT', 0.995),
  ('TGTCAGGGTT', 1),
  ('CGAATATTAA', 0.994),
  ('GGATGCCGGG', 1);

IN: Lab note: need switch fluorescence ratio for TTAAAAAGAG on ATP, anyone have it?
OUT: 0.999

IN: Lab note: need switch fluorescence ratio for AACAGGGAAG on ATP, anyone have it?
OUT: 1.02

IN: Lab note: need switch fluorescence ratio for TAGCCTTTGG on ATP, anyone have it?
OUT: 0.978

IN: Lab note: need switch fluorescence ratio for ATCAGTGGGG on ATP, anyone have it?
OUT: 0.991

IN: Lab note: need switch fluorescence ratio for TTTGTTTCTT on ATP, anyone have it?
OUT: 0.977
